recombinant UMI read abundance (log10) for assorted sequences
Assay: recombinant UMI read abundance after kanamycin selection (control-corrected) (log10(CPM+1)); higher = more efficient recombination; extreme values may be limits of the assay; sequences stand for … in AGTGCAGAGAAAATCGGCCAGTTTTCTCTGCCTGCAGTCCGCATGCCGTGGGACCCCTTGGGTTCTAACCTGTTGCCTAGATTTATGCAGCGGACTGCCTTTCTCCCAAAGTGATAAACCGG…AGGTTGGTTTCACT; site = the 11-nt donor;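 also: IS621 bridge recombinase in Escherichia coli cells against a fixed T5 target plasmid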
Lab note: record just the number, no unit beside it.

Worked examples, 4 sequences total:
>>> obs_value("GAGCTAACATGGACCGGTTTTCCCGGTAATCCGTATTTGAT (site GAGCTGACTAT)")
0.034
>>> obs_value("CATTAGTCATGGACCGGTTTTCCCGGTAATCCGTATTTGTT (site CATTAGTCTAA)")
2.03
>>> obs_value("AAGGATACATGGACCGGTTTTCCCGGTAATCCGTATTTGCC (site AAGGATACTGG)")
2.67
>>> obs_value("GCGCAGCCATGGACCGGTTTTCCCGGTAATCCGTATTTGGG (site GCGAAGCCTCC)")
0.0174

Next sequence, please.
Request: Using the record for AGAAAGGCATGGACCGGTTTTCCCGGTAATCCGTATTTGCT (site AGAAAGGCTAC) , report its recombinant UMI read abundance (log10).
Result: 0.019
